B1: tRNA (parent)
chain: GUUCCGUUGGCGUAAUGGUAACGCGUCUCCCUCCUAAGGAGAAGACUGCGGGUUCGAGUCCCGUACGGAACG

- Variants of: B1
- measurement-protocol: yeast fitness relative to wild type (ratio to wild type); higher = fitter; tRNA-Arg(CCU), competitive growth, 37 C, YPD
Variants at the floor of the assay were thinned out.
measured-attribute: yeast fitness
Please give the numeric answer without any surrounding text.

Recorded yeast fitness, per entry:
alteration="U32C A65U G67A" measured_attribute="yeast fitness" reported_value=0.646
alteration="C11G G23C A36U G44C G68A" measured_attribute="yeast fitness" reported_value=0.717
alteration="A21U C34G G52A C61A" measured_attribute="yeast fitness" reported_value=0.553

Data request: # yeast fitness lookup, item C30U A57G
Data returned: 0.709

Data request: Another variant: A37G C66U A69U
Data returned: 0.674

Data request: Another variant: G41C C61G
Data returned: 0.793

Data request: Another variant: G39U A43G
Data returned: 0.811

Data request: Another variant: A15C U54G
Data returned: 0.537

Data request: Another variant: C4A C46U G68A
Data returned: 0.887

Data request: Another variant: C5U A21U C30G G52A A70U
Data returned: 0.534

Data request: Another variant: U32A U54C
Data returned: 0.629

Data request: Another variant: G9C G25C C66U A70C
Data returned: 0.55

Data request: Another variant: A43G C66U
Data returned: 0.887

Data request: Another variant: A15G G41C G51C C61G
Data returned: 0.726

Data request: Another variant: C5A U16G A20G C29G
Data returned: 0.601

Data request: Another variant: U8C A70G
Data returned: 0.971

Data request: Another variant: G9C G56C
Data returned: 0.514

Data request: Another variant: G6A U13G G50C
Data returned: 0.538

Data request: Another variant: G48C U64G
Data returned: 0.714
